# Tested on: LNCaP
# TEST_PROTOCOL: Cell growth inhibition assay, prostate cancer cell line LNCaP (medium with 10 ng/mL IL-6)
# Type: cell-based
# ASSAY_CONTEXT: Homo sapiens, medium supplemented with 10 ng/mL of IL-6, 10,000 cells/well
REPORTED_METRIC: IC50 (µM)

// worked examples, IC50 included
>  <COMPOUND>
COc1cc(NC(=O)c2cc3cc(NS(C)(=O)=O)ccc3s2)cc(C(C)(C)c2cc(OC)cc(OC(F)(F)F)c2)c1 [Example 34]

>  <IC50 (µM)>
0.24

$$$$
>  <COMPOUND>
CC(C)(c1ccncc1)c1cc(Cl)cc(NC(=O)c2cc3cc(NS(C)(=O)=O)ccc3s2)c1 [Example 191]

>  <IC50 (µM)>
2.2

$$$$
>  <COMPOUND>
CC(C)Oc1cc(CN2CCN(C(=O)C(C)(C)C)CC2)cc(C(C)(C)c2cc(Cl)cc(NC(=O)c3cc4cc(NS(C)(=O)=O)ccc4s3)c2)c1 [Example 127]

>  <IC50 (µM)>
0.14

$$$$
>  <COMPOUND>
CC(C)Oc1cc(CN2CCOCC2)cc(C(C)(C)c2cc(Br)cc(NC(=O)c3cc4cc(NS(C)(=O)=O)ccc4s3)c2)c1 [Example 122]

>  <IC50 (µM)>
0.24

$$$$
>  <COMPOUND>
CC#CCOc1cc(OC(F)(F)F)cc(C(C)(C)c2cc(Cl)cc(NC(=O)c3cc4cc(NS(C)(=O)=O)ccc4s3)c2)c1 [Example 75]

>  <IC50 (µM)>
0.029

$$$$

[a] CC(C)Oc1cc(OC(F)(F)F)cc(C(C)(C)c2cc(Cl)cc(NC(=O)c3cn4cc(NS(C)(=O)=O)ccc4n3)c2)c1 [Example 74]
[b] CC(C)Oc1cc(OC(F)(F)F)cc(C(C)(C)c2cc(Cl)cc(NC(=O)c3cc4c(s3)CCN(NS(C)(=O)=O)C4)c2)c1 [Example 104]
Pick one: a or b . Which has the bigger IC50 number? Identify your pick by its label.
a

[A] CC(C)(c1cc(Br)cc(NC(=O)c2cc3cc(NS(C)(=O)=O)ccc3s2)c1)c1ccc(F)cc1F [Example 35]
[B] CC(C)(c1cc(Cl)cc(NC(=O)c2cc3cc(NS(C)(=O)=O)ccc3s2)c1)c1cc(OC2COC2)cc(OC(F)(F)F)c1 [Example 76]
Pick one: A or B . Which has the bigger IC50 number? Identify your pick by its label.
B

---

# Tested on: DU-145
# TEST_PROTOCOL: Cell growth inhibition assay, prostate cancer cell line DU-145
# Format: cell-based
# ASSAY_CONTEXT: Homo sapiens, DU-145 prostate cancer cell line
REPORTED_METRIC: IC50 (µM)

// worked examples, IC50 included
>  <COMPOUND>
COc1cc(OC(F)(F)F)cc(C(C)(C)c2cc(Br)cc(NC(=O)c3cc4cc(NS(C)(=O)=O)ccc4s3)c2)c1 [Example 36]

>  <ASSAY_SYSTEM>
DU-145

>  <VALUE_UNITS>
µM

>  <IC50>
0.006

$$$$
>  <COMPOUND>
CS(=O)(=O)Nc1ccc2sc(C(=O)Nc3cc(Br)cc(-c4ccc(F)cc4F)c3)cc2c1 [Example 305]

>  <ASSAY_SYSTEM>
DU-145

>  <VALUE_UNITS>
µM

>  <IC50>
0.03

$$$$
>  <COMPOUND>
CS(=O)(=O)Nc1ccc2sc(C(=O)Nc3cc(Cl)cc(Oc4cccc(OC(F)(F)F)c4)c3)cc2c1 [Example 450]

>  <ASSAY_SYSTEM>
DU-145

>  <VALUE_UNITS>
µM

>  <IC50>
0.06

$$$$
>  <COMPOUND>
CS(=O)(=O)Nc1ccc2sc(C(=O)Nc3cc(Cl)cc(Oc4ccc(Cl)c(OC(F)(F)F)c4)c3)cc2c1 [Example 468]

>  <ASSAY_SYSTEM>
DU-145

>  <VALUE_UNITS>
µM

>  <IC50>
0.028

$$$$

[A] CC(C)Oc1cc(OC(F)(F)F)cc(C(C)(C)c2cc(Cl)cc(NC(=O)c3cn4cc(NS(C)(=O)=O)ccc4n3)c2)c1 [Example 74]
[B] CCOc1cc(OC(F)(F)F)cc(C(C)(C)c2cc(Cl)cc(NC(=O)c3cc4cc(NS(C)(=O)=O)ccc4s3)c2)c1 [Example 58]
For the pair A and B , which member has the lower IC50 number? Identify your pick by its label.
B
(B: 0.006 µM, A: 2.6 µM)
